# Lookup of reported % reduction in % of T cells expressing PD-1 keyed by entry
tested on: PD-1 expressing CD3+ normal human T cells; assay: PD-1 surface expression on CD3+ T cells of healthy donors after treatment (1, 18, 24 Hr); assay type: cell-based; settings: 24 Hr treatment; 10^−8M; vs untreated
measure-name: % reduction in % of T cells expressing PD-1 (%)

compound	measure-unit	experimental-value
CCCN(CCC)C1CCc2ccc(O)cc2C1 (centres unmarked)	%	35.85
NCCc1ccc(O)c(O)c1	%	−9.64
CCCN1CCO[C@@H]2c3cc(O)ccc3OC[C@H]21	%	47.61
CN[C@@H]1Cc2cccc3[nH]c(=O)n(c23)C1	%	21.66
Oc1ccc(C2CNCCc3c2cc(O)c(O)c3Cl)cc1 (centres unmarked)	%	28.05
Oc1cc2c(cc1O)C(c1ccccc1)CNCC2 (centres unmarked)	%	0.61
NC[C@@H]1O[C@H](C23CC4CC(CC(C4)C2)C3)Cc2c1ccc(O)c2O	%	28.05
N[C@@H](CCC(=O)O)C(=O)O [Glutamate]	%	20.2

---

# Lookup of reported % of large T cells expressing PD-1 keyed by entry
tested on: PD-1 expressing large proliferating CD3+ normal human T cells; assay: PD-1 expression on large proliferating T cells (FSC/SSC gating), 1 Hr treatment; type: cell-based; conditions: concentration not given

test-smiles	% of large T cells expressing PD-1 / %
O=C(NCCCCN1CCN(c2cccc(Cl)c2Cl)CC1)c1ccc2c(c1)Cc1ccccc1-2	22.5
CN1CCc2cc(Cl)c(O)cc2[C@H]2c3ccccc3CC[C@@H]21	19.8
Cc1c(C2CCN(CCc3ccccc3)CC2)noc1-c1ccc(Cl)cc1	19.3
OC1(c2ccc(Cl)cc2)CCN(Cc2c[nH]c3ccccc23)CC1	19.0

---

system: PD-1 expressing smaller non-proliferating CD3+ normal human T cells; assay: PD-1 expression on smaller non-proliferating T cells (FSC/SSC gating), 1 Hr treatment; assay type: cell-based; settings: concentration not given, vs untreated
measure-name: % reduction in % of smaller T cells expressing PD-1

molecule	experimental-value
CN1CCc2cc(Cl)c(O)cc2[C@H]2c3ccccc3CC[C@@H]21 [SCH 39166]	8.7%
OC1(c2ccc(Cl)cc2)CCN(Cc2c[nH]c3ccccc23)CC1 [L-741,626]	12.1%
O=C(NCCCCN1CCN(c2cccc(Cl)c2Cl)CC1)c1ccc2c(c1)Cc1ccccc1-2 [NGB 2904]	8.4%
Cc1c(C2CCN(CCc3ccccc3)CC2)noc1-c1ccc(Cl)cc1 [L-741,742]	13.9%
